- SYSTEM_NAME: T1, VP1 pentamer of BKV genotype II (recombinant) (BK virus genotype II, UniProt P14996 30-300)
- T1 construct: also called GII; VP1 geno II pentamer; not shown: N-terminal His-tag of pESPRIT002; C-terminal biotin acceptor peptide (BAP) of pESPRIT002
- ASSAY_PROCEDURE: ELISA, coated VP1 pentamer
The entries below come with measured EC50 values attached.

BINDER | EC50
antibody B8P7 (antibody, V domains shown) VH: QVQLQESGPGLVRPSETLSLTCTVSGGSISPYYWNWIRQPPGKGLEWIGYIYYSGNTKYNPSLKSRVTISVDTSKNQFSLKLSSVSAADTAVYYCARDSCSGTCYLGDNWFDPWGQGTLVTVSS VL: QSVLTQPPSVSGAPGQRVTISCTGSSSNIGANNDVHWYQHLPGTAPKLLIYGNNHRPSGVPDRFSGSKSGTSASLAITGLQAEDEADYYCQSYDSSLSTSKVFGGGTKLTVL | 0.04 µg/mL
antibody G5P6 (antibody, V domains shown) VH: QVQLVQSGAEVKKPGASVKVSCKASGYTFTTHIIHWVRQAPGQRLEWMGWINAGNGNTKYSEKFQGRVTLTRDTSASTAYMELSSLRSEDTAIYYCAREDQWLGRSPLEYWGQGTLVTVSS VL: EIVLTQSPGTLSLSPGERATLSCRASQSVSSSYLAWYQHKPGQAPRLLIYGASSRATGIPDRFSGSGSGTDFTLTVSRLEPEDFAVYYCQQYGNSYPWTFGQGTKVEIK | 0.28 µg/mL
antibody C6P8 (antibody, V domains shown) VH: EVQLVESGGGLVQPGGSLKLSCAASGFTFSGSEIHWVRQASGKGLEWIGRVRSRANRHATGYSESVKGRFTISRDDSKNTASLQLNSLKIEDTAVYYCTGVRGVISRYFAMDVWGQGTTVTVSS VL: SYVLTQTPSVSVAPGQTARITCGGNNIGSNSVHWYQQKPGQAPILVVYDDSERPSGIPERFSGSNSGNTATLTISRVEGGDEADYQCQVWDRRGDLLVFGGGTKLTVL | 3 µg/mL
